# TESTED_TARGET: UniProt Q63424
# Sequence (Q63424 1-729): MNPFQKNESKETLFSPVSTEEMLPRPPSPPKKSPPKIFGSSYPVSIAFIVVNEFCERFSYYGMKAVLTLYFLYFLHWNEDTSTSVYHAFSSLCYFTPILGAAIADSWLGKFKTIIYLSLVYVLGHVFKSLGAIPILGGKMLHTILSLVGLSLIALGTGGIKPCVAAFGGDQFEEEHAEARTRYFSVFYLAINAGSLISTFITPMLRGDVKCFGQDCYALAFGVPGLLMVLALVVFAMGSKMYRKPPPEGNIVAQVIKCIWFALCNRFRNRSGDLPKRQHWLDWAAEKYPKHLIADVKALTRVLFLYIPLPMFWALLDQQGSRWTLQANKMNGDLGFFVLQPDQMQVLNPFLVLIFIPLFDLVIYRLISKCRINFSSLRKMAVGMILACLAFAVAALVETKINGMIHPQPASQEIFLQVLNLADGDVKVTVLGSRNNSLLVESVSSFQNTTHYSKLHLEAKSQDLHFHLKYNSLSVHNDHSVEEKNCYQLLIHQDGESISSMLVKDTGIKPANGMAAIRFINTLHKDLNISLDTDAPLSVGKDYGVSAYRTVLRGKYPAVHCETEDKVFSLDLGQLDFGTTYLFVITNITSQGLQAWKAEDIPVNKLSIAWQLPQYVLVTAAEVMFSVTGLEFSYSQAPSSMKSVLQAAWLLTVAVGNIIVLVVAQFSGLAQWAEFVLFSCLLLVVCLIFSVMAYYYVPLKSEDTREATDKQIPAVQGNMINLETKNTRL
# Parameters: gene Slc15a2
pIC50: −log10 of the molar value.
QUANTITY_MEASURED: pIC50

[[record]]
molecule = "Nc1nc(/C(=C/CC(=O)O)C(=O)N[C@@H]2C(=O)N3C(C(=O)O)=CCS[C@H]23)cs1 [ceftibuten]"
recorded_measurement = 3.00


---

# TESTED_TARGET: PepT2 (Rattus norvegicus)
# EXPERIMENTAL_DETAILS: inhibition of ^3H di-alanine uptake in PepT2 proteoliposomes; counterflow; SSM electrophysiology
# Type: biochemical
# Parameters: gene Slc15a2; purified rat PepT2 reconstituted into liposomes
Where a SMILES comes first, the peptide text is derived from it.
QUANTITY_MEASURED: IC50 (µM)

[[record]]
molecule = "C[C@H](N)C(=O)N[C@@H](C)C(=O)O [di-alanine] (H-Ala-Ala-OH)"
quantity_measured = "IC50"
recorded_measurement = 32


Every entry's value here was drawn from paper PMC11188089.
